Tested on: Human immunodeficiency virus 1
Assay: Inhibition of 50% of the integrase-mediated catalysis of the Y-oligo substrate with 95% confidence interval
Format: functional
Conditions: Human immunodeficiency virus 1
pIC50: −log10 of the molar value.

compound | pIC50
O=C(O)C(Cc1ccc(O)c(O)c1)C(Cc1ccc(O)c(O)c1)C(=O)O (stereo in doubt; 24b) | 5.56
CC(CCC(=O)O)C1CC[C@H]2[C@@H]3[C@H](OC(=O)/C=C/c4ccc(O)c(O)c4)CC4C[C@H](OC(=O)/C=C/c5ccc(O)c(O)c5)CC[C@]4(C)[C@H]3C[C@H](OC(=O)/C=C/c3ccc(O)c(O)c3)[C@]12C (stereo partly drawn) | 6.12
O=C(O)C(=C\c1ccc(O)c(O)c1)/C(=C/c1ccc(O)c(O)c1)C(=O)O | 5.66

----------
Test system: MT2
Test: Inhibition of MT-2 cell growth by 5% or less over a 72 hr time period.
Format: functional, Homo sapiens
value type: CT5 (µM)

compound | target or system | display unit | experimental value
CC(CCC(=O)O)C1CC[C@H]2[C@@H]3[C@H](OC(=O)/C=C/c4ccc(O)c(O)c4)CC4C[C@H](OC(=O)/C=C/c5ccc(O)c(O)c5)CC[C@]4(C)[C@H]3C[C@H](OC(=O)/C=C/c3ccc(O)c(O)c3)[C@]12C (stereo partly drawn) | MT2 | µM | 11.4
O=C(/C=C/c1ccc(O)c(O)c1)Nc1cc(NC(=O)/C=C/c2ccc(O)c(O)c2)cc(C(=O)O)c1 | MT2 | µM | 47
O=C(/C=C\c1ccc(O)c(O)c1)NC(COC(=O)/C=C/c1ccc(O)c(O)c1)C(=O)O (stereo not drawn) | MT2 | µM | 39

----------
Test system: Human immunodeficiency virus 1
Test: Inhibition of 50% of the integrase-mediated catalysis of the Y-oligo substrate
Assay type: functional
pIC50: −log10 of the molar value.

molecule | pIC50
O=C(O)C(O)C(O)C(=O)O (stereo not drawn) | < 4.60
O=C(OC(C(=O)O)C(OC(=O)c1cccs1)C(=O)O)c1cccs1 (stereo not drawn) | < 5.00
O=C(OC(C(=O)O)C(OC(=O)c1ccsc1)C(=O)O)c1ccsc1 (stereo not drawn) | < 5.00

----------
System: Human immunodeficiency virus 1
Assay: Inhibition of 50% of the integrase-mediated catalysis of the V1/V2 substrate
Assay type: functional
Parameter IC50: see the listing below.
value type: IC50

compound | experimental value
O=C(OC(C(=O)O)C(OC(=O)c1ccsc1)C(=O)O)c1ccsc1 (stereo not drawn) | > 10 µM
O=C(OC(C(=O)O)C(OC(=O)c1cccs1)C(=O)O)c1cccs1 (stereo not drawn) | > 10 µM
O=C(O)C(O)C(O)C(=O)O (stereo not drawn) | > 25 µM

----------
System: MT2
Test: Inhibition of MT-2 cell growth by 5% or less over a 72 hr time period.
Format: functional, Homo sapiens

molecule | target or system | display unit | CT5
O=C(/C=C\c1ccc(O)c(O)c1)NC(CNC(=O)/C=C/c1ccc(O)c(O)c1)C(=O)O (centres undefined) | MT2 | µM | 35
O=C(OC(C(=O)O)C(OC(=O)c1ccsc1)C(=O)O)c1ccsc1 (centres undefined) | MT2 | µM | 100
O=C(/C=C/c1ccc(O)c(O)c1)NCC(OC(=O)/C=C\c1ccc(O)c(O)c1)C(=O)O (centres undefined) | MT2 | µM | 175
CC(CCC(=O)O)C1CC[C@H]2[C@@H]3CCC4C[C@H](OC(=O)/C=C/c5ccc(O)c(O)c5)CC[C@]4(C)[C@H]3C[C@H](OC(=O)/C=C/c3ccc(O)c(O)c3)[C@]12C (some centres undefined) | MT2 | µM | 6.4
